- Format: in vitro ADME, Mice
- experimental.context: clearance in microsomes
*1 amine or outer side, *2 acyl side, *3 side chain or, on linkers, in order; H or OH if unused. Where a SMILES comes first, the peptide text is derived from it. [ ]: non-standard residue; d: D form. X2 = C#CCn1cc(C[C@@H](C(=O)[*:2])N(C)[*:1])c2ccccc21; X4 = C=CCO[C@H](c1ccccc1)[C@H](N[*:1])C(=O)[*:2]; NMeLeu(5-OH,4R) = CN[C@@H](C[C@@H](C)CO)C(=O)O; Phe(βR-OMe) = CO[C@H](c1ccccc1)[C@H](N)C(=O)O; Trp(1-Me) = Cn1cc(C[C@H](N)C(=O)O)c2ccccc21; NMeL = CN[C@@H](CC(C)C)C(=O)O; Pra = C#CC[C@H](N)C(=O)O
Assign Microsomal Stability Mice to each entry below.

Record excerpt, results attached:
molecule	experimental.readout	reading
C=CCO[C@H](c1ccccc1)[C@@H]1NC(=O)[C@H](C)NC(=O)[C@H](C[C@@H](C)CO)N(C)C(=O)[C@H](Cc2cn(C)c3ccccc23)NC(=O)[C@H](C(C)C)NC(=O)[C@H](CC(C)C)N(C)C(=O)[C@H](C(C)C)NC1=O [Compound 14] (cyclo(A[X4]V[NMeL]V[Trp(1-Me)][NMeLeu(5-OH,4R)]))	Microsomal Stability Mice	> 88 %Qh
C#CCn1cc(C[C@H]2C(=O)N(C)[C@@H](C[C@@H](C)CO)C(=O)N[C@@H](C)C(=O)N[C@@H]([C@H](OC)c3ccccc3)C(=O)N[C@@H](C(C)C)C(=O)N(C)[C@@H](CC(C)C)C(=O)N[C@@H](C(C)C)C(=O)N2C)c2ccccc21 [Compound 26] (cyclo(A[Phe(βR-OMe)]V[NMeL]V[X2][NMeLeu(5-OH,4R)]))	Microsomal Stability Mice	> 88 %Qh

API: the following record is the query input.
Q. # Microsomal Stability Mice lookup, item C#CC[C@@H]1NC(=O)[C@H](CC(C)C)N(C)C(=O)[C@H](C(C)C)NC(=O)[C@H]([C@H](OC)c2ccccc2)NC(=O)[C@H](C)NC(=O)[C@H](C[C@@H](C)CO)N(C)C(=O)[C@H](Cc2cn(C)c3ccccc23)NC1=O [Compound 10] (cyclo(A[Phe(βR-OMe)]V[NMeL][Pra][Trp(1-Me)][NMeLeu(5-OH,4R)]))
A. > 88 %Qh

----------
Assign pKd to each entry below.
- subject.of.test: ClpC1 NTD protein (M. tuberculosis) (Mycobacterium tuberculosis, UniProt P9WPC9)
- Sequence (P9WPC9 1-156, looked up, natural form): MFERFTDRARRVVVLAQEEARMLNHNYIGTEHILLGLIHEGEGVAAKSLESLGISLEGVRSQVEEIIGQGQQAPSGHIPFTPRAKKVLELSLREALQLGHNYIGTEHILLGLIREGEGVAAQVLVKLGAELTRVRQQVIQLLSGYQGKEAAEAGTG
- protocol.summary: biochemical
- Assay type: binding
- experimental.context: SPR (Supplementary Table 1); read-out: KD ClpC1-NTD Mean ± SD
*1 amine or outer side, *2 acyl side, *3 side chain or, on linkers, in order; H or OH if unused. Where a SMILES comes first, the peptide text is derived from it. [ ]: non-standard residue; d: D form. X1 = C#CCn1cc(C[C@H](N[*:1])C(=O)[*:2])c2ccccc21; NMeLeu(5-OH,4R) = CN[C@@H](C[C@@H](C)CO)C(=O)O; Phe(βR-OMe) = CO[C@H](c1ccccc1)[C@H](N)C(=O)O; Trp(1-Me) = Cn1cc(C[C@H](N)C(=O)O)c2ccccc21; NMeL = CN[C@@H](CC(C)C)C(=O)O
Give bare numbers, as −log10 of the molar value.

Record excerpt, results attached:
compound	reading
CO[C@H](c1ccccc1)[C@@H]1NC(=O)[C@H](C)NC(=O)[C@H](C[C@@H](C)CO)N(C)C(=O)[C@H](Cc2cn(Cc3cn(CCCCCn4cc(Cn5cc(C[C@@H]6NC(=O)[C@H](C(C)C)NC(=O)[C@H](CC(C)C)N(C)C(=O)[C@H](C(C)C)NC(=O)[C@H]([C@H](OC)c7ccccc7)NC(=O)[C@H](C)NC(=O)[C@H](C[C@@H](C)CO)N(C)C6=O)c6ccccc65)nn4)nn3)c3ccccc23)NC(=O)[C@H](C(C)C)NC(=O)[C@H](CC(C)C)N(C)C(=O)[C@H](C(C)C)NC1=O [Compound 9]	9.22
CO[C@H](c1ccc(OCc2cn(CCCCCn3cc(COc4ccc([C@@H](OC)[C@@H]5NC(=O)[C@H](C)NC(=O)[C@H](C[C@@H](C)CO)N(C)C(=O)[C@H](Cc6cn(C)c7ccccc67)N(C)C(=O)[C@H](C(C)C)NC(=O)[C@H](CC(C)C)N(C)C(=O)[C@H](C(C)C)NC5=O)cc4)nn3)nn2)cc1)[C@@H]1NC(=O)[C@H](C)NC(=O)[C@H](C[C@@H](C)CO)N(C)C(=O)[C@H](Cc2cn(C)c3ccccc23)N(C)C(=O)[C@H](C(C)C)NC(=O)[C@H](CC(C)C)N(C)C(=O)[C@H](C(C)C)NC1=O [SI-66]	8.15
C#CCn1cc(C[C@@H]2NC(=O)[C@H](C(C)C)NC(=O)[C@H](CC(C)C)N(C)C(=O)[C@H](C(C)C)NC(=O)[C@H](Cc3ccccc3)NC(=O)[C@H](C)NC(=O)[C@H](C[C@@H](C)CO)N(C)C2=O)c2ccccc21 [SI-72] (cyclo(AFV[NMeL]V[X1][NMeLeu(5-OH,4R)]))	7.85

Each of the following entries comes with a recorded value; kindly state pKd for each.
1. CO[C@H](c1ccccc1)[C@@H]1NC(=O)[C@H](C)NC(=O)[C@H](C[C@@H](C)CO)N(C)C(=O)[C@H](Cc2cn(C)c3ccccc23)N(C)C(=O)[C@H](Cc2cn(CCOCCOCCn3cc(C[C@@H]4NC(=O)[C@H](CC(C)C)N(C)C(=O)[C@H](C(C)C)NC(=O)[C@H]([C@H](OC)c5ccccc5)NC(=O)[C@H](C)NC(=O)[C@H](C[C@@H](C)CO)N(C)C(=O)[C@H](Cc5cn(C)c6ccccc56)N(C)C4=O)nn3)nn2)NC(=O)[C@H](CC(C)C)N(C)C(=O)[C@H](C(C)C)NC1=O [Compound 21]
2. CO[C@H](c1ccccc1)[C@@H]1NC(=O)[C@H](C)NC(=O)[C@H](C[C@@H](C)CO)N(C)C(=O)[C@H](Cc2cn(C)c3ccccc23)NC(=O)[C@H](CCC(=O)N(C)C)NC(=O)[C@H](CC(C)C)N(C)C(=O)[C@H](C(C)C)NC1=O [SI-74] (cyclo(A[Phe(βR-OMe)]V[NMeL]E(NMe2)[Trp(1-Me)][NMeLeu(5-OH,4R)]))

A.
[8.44, 8.40]
